- measurement-target: human chymotrypsin (Chtr) (human, UniProt P17538 19-263); note: test concentration or dose not given here
- Sequence (P17538 19-263): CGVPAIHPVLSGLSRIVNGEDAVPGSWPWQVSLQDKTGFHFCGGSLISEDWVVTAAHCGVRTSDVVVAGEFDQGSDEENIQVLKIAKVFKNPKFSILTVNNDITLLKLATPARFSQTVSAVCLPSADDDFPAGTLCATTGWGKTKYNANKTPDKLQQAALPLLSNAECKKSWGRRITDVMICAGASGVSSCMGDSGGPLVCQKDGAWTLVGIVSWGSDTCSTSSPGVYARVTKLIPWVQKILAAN
- assay-comment: cell-based or functional assay
value-kind: % Inhibition (%)
// return numeric value only (unit: %, not printed)

## Input Specify measured % Inhibition for AATG9 (other, human, mature; also called rAATG9) HHHHHHEDPQGDAAQKTDTSHHDQDHPTFNKITPNLAEFAFSLYRQLAHQSNSTNIFFSPVSIATAFAMLSLGTKADTHDEILEGLNFNLTEIPEAQIHEGFQELLRTLNQPDSQLQLTTGNGLFLSEGLKLVDKFLEDVKKLYHSEAFTVNFGDTEEAKKQINDYVEKGTQGKIVDLVKELDRDTVFALVNYIFFKGKWERPFEVKDTEEEDFHVDQVTTVKVPMMKRLGMFNIQHCKKLSSWVLLMKYLGNATAIFFLPDEGKLQHLENELTHDIITKFLENEDRRSASLHLPKLSITGTYDLKSVLGQLGITKVFSNGADLSGVTEEAPLKLSKAVHKAVLTIDEKGTEAAGAMFLETVDYAIPPEVKFNKPFVFLMIEQNTKSPLFMGKVVNPTQK .
## Output 100
